system: M17-SYNwt cells; test: α-synuclein cytotoxicity assay (LDH leakage from paraquat-treated α-synuclein over-expressing neuroblastoma cells); format: cell-based, human; details: Homo sapiens, Neuroblastoma cell; paraquat 32 mM, 40 hours, LDH release; 10 point curves in duplicate
endpoint-name: EC50 (µg/mL)
Write the number in µg/mL without appending the unit.

Examples with their reported EC50 follow.
So, CC1CN(c2nc(Cc3ccc(F)cc3)ns2)CCN1C(=O)CCc1ccccc1 (stereo not drawn) ? Its EC50 was 0.6

Please fill in: EC50 reported for `COc1ccc(S(=O)(=O)N2CCN(c3nc(Cc4ccccc4)ns3)CC2)cc1` = 0.0016

Next:
Entry `O=C(NCCN1CCN(c2nc(Cc3ccc(F)cc3)ns2)CC1)c1cc(Cl)cc(Cl)c1` , EC50 reported as 1.42

Value of EC50 reported for the compound `Cc1ccc(S(=O)(=O)N2CCN(c3nc(Cc4ccc(Cl)cc4)ns3)CC2)cc1` is 0.0807

Each recorded value in this set is attributed to patent EP1981504B1.
